# System: Escherichia coli
# test.summary: Compound was tested for photoinhibition of Escherichia coli (CIP 548T); Sensitive
# Type: functional, organism-based
measurement.name: Antibiotic resistance

CO[C@H]1/C=C/O[C@@]2(C)Oc3c(C)c(O)c4c(O)c(c(/C=N/N5CCN(C)CC5)c(O)c4c3C2=O)NC(=O)/C(C)=C\C=C\[C@H](C)[C@H](O)[C@@H](C)[C@@H](O)[C@@H](C)[C@H](OC(C)=O)[C@@H]1C; Sensitive
CN[C@@H]1[C@H](O[C@H]2[C@H](O[C@H]3[C@H](O)[C@@H](O)[C@H](N=C(N)N)[C@@H](O)[C@@H]3N=C(N)N)O[C@@H](C)[C@]2(O)C=O)O[C@@H](CO)[C@H](O)[C@H]1O; Sensitive
Nc1ccc(S(N)(=O)=O)cc1; Sensitive
CC1(C)S[C@@H]2[C@H](NC(=O)[C@H](N)c3ccc(O)cc3)C(=O)N2[C@H]1C(=O)O; Sensitive
